assay: qHTS for Inhibitors of Plasmodium falciparum (GB4) proliferation (AID 504315); also: nearly all actives have a fitted effect of over 50% in size; conditions: P. falciparum GB4 in erythrocytes, SYBR Green DNA, 72 h; series mostly up to 6.7 µM
Results filed as inconclusive are left out. Calls of active or inactive are those of the source. Calls follow the shape of the dose curve; as a rule, active = well fitted inhibition curve with a large enough effect; inconclusive = small, poorly fitted or top-dose-only effect, or effect the other way; inactive = flat fitted curve, though single readings scatter.
Classes used: active, inactive

| molecule | category |
| --- | --- |
| CCc1cc2c(nc1CC)CCN(CCC(C)=NO[C@@H](C)CN1CCCc3nc(C)c(C)cc31)C2 | inactive |
| C=CC[C@@H]1C=C[C@@H](Oc2ccc(OC)cc2)[C@H](CO)O1 | active |
| CCCCC1=CC2=C(c3ccco3)C(=O)C(C)(OC(=O)c3ccc(OC)cc3)C(=O)C2=CN1Cc1ccc2c(c1)OCO2 (stereo not given) | inactive |
| COC1=C[C@H](C(=O)NCc2ccccc2)[C@@]2(C)Cc3ccccc3[C@@H]2CC1=O | inactive |
| COC(=O)N[C@@H](c1ccc(Br)cc1)C(C(=O)OC)C(=O)OC | inactive |
| COC(=O)[C@]1(C=C2c3ccccc3C[C@H](OC)[C@@H]2C)[C@@H]2CC=C[C@@H]21 | inactive |
| COCCN1C(=O)NC(c2ccc(Br)cc2)C(C(C)=O)=C1C (stereo not given) | inactive |
| C[C@@H]1CC[C@H]2C(=O)N(Cc3cccc([N+](=O)[O-])c3)C[C@@H](O)CN2[C@@H]1c1ccc(Br)cc1 | inactive |
| C[C@H](NC(=O)N1CCc2nc(COc3ccccc3)c3c(c2C1)CO[C@@H](C)C3)c1ccccc1 | inactive |
| CC(C)CON=C1C[C@@H](O)[C@@H](O)[C@@H]2[C@H]3C(=O)N(Cc4ccc5c(c4)OCO5)C(=O)[C@@H]3CC[C@@H]12 | inactive |
| COc1ccc(C2=CC3=C(Br)C(=O)C(C)(O)C(=O)C3=CO2)cc1 (stereo not given) | inactive |
| COc1ccc(-c2nc3c(c4c2C[C@H](c2ccccc2)OC4)CN(S(=O)(=O)c2ccc(Cl)c4nonc24)CC3)c(C)c1 | inactive |
| c1ccc(CCc2nc(-c3ccccc3)oc2NC2CCCCC2)cc1 | inactive |
| C=CCN1C=C2C(=O)C(C)(OC(=O)c3ccco3)C(=O)C(C=C)=C2C=C1C1CC1 (stereo not given) | inactive |
| C[C@H](O)CON1C(=O)c2ccccc2C1=O | inactive |
| COC(=O)[C@H](COC(C)(C)C)NC(=O)O[C@@H]1C(=O)c2cc(OC)ccc2O[C@H]1c1cccc(OC)c1 | inactive |
| COc1cc2c(cc1OC)CSC1C(=O)N(C)C(SC2)C(=O)N1C | inactive |
| COC(=O)CCCC1=CC2=C(c3ccccc3)C(=O)C(C)(OC(=O)C3CCCC3)C(=O)C2=CN1CCN1CCOCC1 (stereo not given) | inactive |
| COC(=O)CCCC1=CC2=CC(=O)C(C)(OC(=O)c3cccs3)C(=O)C2=CN1C1CCCCC1 (stereo not given) | inactive |
| COc1cccc([C@@H](NC(=O)C(F)(F)F)[C@@H]2CCCC=C2c2ccccc2)c1 | inactive |
| C[C@@H]1CC[C@H]2C(=O)N(Cc3cccc([N+](=O)[O-])c3)C[C@H](O)CN2[C@@H]1c1cccc(Br)c1 | inactive |
| COC(=O)NC(C(=O)OC)(C(=O)OC)c1ccccc1 | inactive |
| COc1ccc(NC(=O)N2CCc3nc(-c4ccc(OC)cc4C)c4c(c3C2)CO[C@@H](c2ccccc2)C4)cc1 | inactive |
| C#CCNC(=O)[C@H]1C=C(OC)C(=O)C[C@H](c2ccccc2)[C@H]1C | inactive |
| CC(=O)OC[C@H]1O[C@H](CC=NO[C@@H](C)c2cn([C@H](CO)Cc3ccccc3)nn2)C=C[C@@H]1OC(C)=O | inactive |
| Cc1cc2c(nc1C)CCCCN2C[C@H](C)ON=C1[C@H]2CCn3c(=O)n(-c4ccccc4)c(=O)n3[C@@H]2[C@H](O)[C@@H]2O[C@H]12 | inactive |
| CC(CCN1CCCc2nc(C)c(C)cc21)=NOC[C@@H](O)[C@H]1O[C@@H]2OC(C)(C)O[C@H]2[C@@H]1O | inactive |
| COc1ccc2c(c1)C(=O)[C@H](OC(=O)Nc1ccc(OC(F)F)cc1)[C@@H](c1ccc(OC)c(Br)c1)O2 | inactive |
| CCOC(=O)NN=C1C[C@@H](O)[C@@H](O)[C@@H]2[C@H]3C(=O)N(C[C@@H]4CCCO4)C(=O)[C@@H]3CC[C@H]12 | inactive |
| CC1(OC(=O)C2CCCC2)C(=O)C=C2C=C(c3ccsc3)N(C(CO)CO)C=C2C1=O (stereo not given) | inactive |
| COc1ccc2c(c1)[C@H](C=Cc1ccccc1)[C@@H]([C@H](O)CO)O2 | inactive |
| CC(C)[C@@H](OCc1ccccc1)[C@H](C)C=NO[C@H](C)c1cn([C@@H]2COC[C@@H]2O)nn1 | inactive |
| COCCN1C(=O)N[C@@H](CCc2ccccc2)[C@H](C(=O)OC)[C@H]1C | inactive |
| C=C(C)C(=O)C=CCCCC=CC(=O)OCC | inactive |
| COC(=O)[C@H](COC(C)(C)C)NC(=O)O[C@@H]1C(=O)c2cc(Br)ccc2O[C@H]1c1ccc2c(c1)OCO2 | inactive |

Measured values drawn from PubChem BioAssay (NCATS) for this set.
